Data origin: paper PMC7247425

- STUDY_SYSTEM: UniProt:P33527
- Sequence (P33527 whole entry): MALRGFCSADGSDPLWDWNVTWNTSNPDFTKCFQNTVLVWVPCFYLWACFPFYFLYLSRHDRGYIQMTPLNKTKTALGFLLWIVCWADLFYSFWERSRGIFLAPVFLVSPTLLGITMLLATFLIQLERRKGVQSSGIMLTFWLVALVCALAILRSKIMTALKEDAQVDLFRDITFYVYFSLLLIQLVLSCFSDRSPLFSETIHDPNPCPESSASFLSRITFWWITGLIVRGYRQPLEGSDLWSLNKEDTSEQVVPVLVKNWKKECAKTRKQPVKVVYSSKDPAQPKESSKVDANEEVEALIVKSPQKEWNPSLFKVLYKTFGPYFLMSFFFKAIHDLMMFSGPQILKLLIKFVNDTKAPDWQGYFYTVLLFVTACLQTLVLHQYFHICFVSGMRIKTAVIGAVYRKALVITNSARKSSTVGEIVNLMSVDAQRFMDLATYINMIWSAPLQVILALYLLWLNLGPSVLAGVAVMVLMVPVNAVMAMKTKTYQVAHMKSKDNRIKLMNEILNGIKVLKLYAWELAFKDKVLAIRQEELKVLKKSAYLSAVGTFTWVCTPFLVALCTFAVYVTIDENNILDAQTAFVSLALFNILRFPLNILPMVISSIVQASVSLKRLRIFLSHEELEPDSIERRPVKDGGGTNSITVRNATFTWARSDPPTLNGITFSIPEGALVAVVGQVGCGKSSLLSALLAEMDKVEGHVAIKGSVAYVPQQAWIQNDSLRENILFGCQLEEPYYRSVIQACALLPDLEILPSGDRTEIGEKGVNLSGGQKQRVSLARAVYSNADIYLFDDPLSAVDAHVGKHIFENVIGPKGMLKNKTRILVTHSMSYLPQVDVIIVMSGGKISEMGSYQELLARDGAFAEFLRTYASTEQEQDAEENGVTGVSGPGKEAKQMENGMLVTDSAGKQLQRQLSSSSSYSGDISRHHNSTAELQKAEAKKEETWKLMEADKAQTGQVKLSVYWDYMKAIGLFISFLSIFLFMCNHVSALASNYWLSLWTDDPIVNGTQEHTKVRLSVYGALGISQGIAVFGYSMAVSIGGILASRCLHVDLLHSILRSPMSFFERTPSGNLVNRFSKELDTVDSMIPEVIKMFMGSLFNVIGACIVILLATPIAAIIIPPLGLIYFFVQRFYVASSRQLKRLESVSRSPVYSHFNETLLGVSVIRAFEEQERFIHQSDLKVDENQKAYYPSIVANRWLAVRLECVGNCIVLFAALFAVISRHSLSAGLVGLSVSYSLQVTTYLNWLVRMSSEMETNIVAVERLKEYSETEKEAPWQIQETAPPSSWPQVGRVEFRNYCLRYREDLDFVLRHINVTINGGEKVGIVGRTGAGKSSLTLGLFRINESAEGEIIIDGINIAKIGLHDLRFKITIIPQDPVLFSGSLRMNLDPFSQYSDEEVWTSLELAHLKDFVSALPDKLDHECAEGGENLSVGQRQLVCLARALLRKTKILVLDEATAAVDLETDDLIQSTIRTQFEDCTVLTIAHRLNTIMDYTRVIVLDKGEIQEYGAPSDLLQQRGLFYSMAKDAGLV
- ASSAY: Calcein-AM transport inhibition in MDCK-MRP1 cells (MRP1 activity)
Please go through the items and note down their pEC50.
The scale used: pEC50 is minus the common logarithm of the concentration in molar units.

Sample COc1cc2c(cc1OC)CN(CCCCc1cn(-c3ccc(F)cc3)c3ccccc13)CC2 ; pEC50 observed: 4.78

Sample Fc1ccc(-n2cc(CCCCN3CCC4(CC3)OCc3ccccc34)c3ccccc32)cc1 [Siramesine, siramesine, reference compound] ; pEC50 observed: 4.63

Sample COc1ccc(CNCCCCc2cn(-c3ccc(F)cc3)c3ccccc23)cc1OC ; pEC50 observed: 4.55

Sample COc1cc2c(cc1OC)CN(C(=O)CCC1CCCc3c(OC)cccc31)CC2 (stereo not shown) ; pEC50 observed: 4.75
